biological target: AAK1 (Homo sapiens); assay: NAK family TR-FRET binding displacement assay; conditions: NAK family FRET screening
Sequence (Q2M2I8 whole entry): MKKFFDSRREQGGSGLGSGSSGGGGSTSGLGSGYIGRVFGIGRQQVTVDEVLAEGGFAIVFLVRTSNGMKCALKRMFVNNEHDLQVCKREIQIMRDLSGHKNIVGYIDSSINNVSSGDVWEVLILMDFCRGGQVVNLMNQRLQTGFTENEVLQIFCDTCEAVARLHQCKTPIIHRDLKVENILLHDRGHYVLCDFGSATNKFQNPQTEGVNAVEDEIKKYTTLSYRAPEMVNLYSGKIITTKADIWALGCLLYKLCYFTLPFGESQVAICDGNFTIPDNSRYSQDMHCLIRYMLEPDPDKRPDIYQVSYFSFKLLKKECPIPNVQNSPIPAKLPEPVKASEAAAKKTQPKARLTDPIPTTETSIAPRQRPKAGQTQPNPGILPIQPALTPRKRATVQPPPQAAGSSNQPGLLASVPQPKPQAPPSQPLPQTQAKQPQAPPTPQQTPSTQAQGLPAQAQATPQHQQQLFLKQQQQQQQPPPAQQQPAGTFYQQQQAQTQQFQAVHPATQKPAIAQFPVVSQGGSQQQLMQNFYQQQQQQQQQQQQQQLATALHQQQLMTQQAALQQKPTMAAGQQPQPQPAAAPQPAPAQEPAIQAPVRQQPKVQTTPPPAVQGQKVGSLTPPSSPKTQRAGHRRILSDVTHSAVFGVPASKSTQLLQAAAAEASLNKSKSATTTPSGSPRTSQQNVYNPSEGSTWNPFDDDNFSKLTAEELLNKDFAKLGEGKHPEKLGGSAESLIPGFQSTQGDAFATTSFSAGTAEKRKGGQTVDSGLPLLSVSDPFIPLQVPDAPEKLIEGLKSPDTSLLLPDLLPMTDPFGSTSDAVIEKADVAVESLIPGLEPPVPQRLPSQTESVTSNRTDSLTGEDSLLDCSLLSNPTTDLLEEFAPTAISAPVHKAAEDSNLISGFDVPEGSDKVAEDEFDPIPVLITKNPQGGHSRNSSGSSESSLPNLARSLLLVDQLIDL
PROPERTY_NAME: Ki (nM)
# output: bare number, implied unit nM

// query Ki value for entry `Brc1ccc2nccc(Nc3ccc4[nH]ncc4c3)c2c1`
520

// query Ki value for entry `COc1cc2nccc(Nc3cc(OC)c(OC)c(OC)c3)c2cc1OC`
28000

// query Ki value for entry `Brc1ccc2nccc(Nc3cccc4ncsc34)c2c1`
2600

###

assay: mouse liver microsome metabolic stability; settings: mouse, mouse liver microsomes, T1/2 (min), mouse liver microsomes with NADPH; mean average, n = 2
Use t when the recorded half-life is no lower than 5 min; use f when it is lower.

Quick check: does `Brc1ccc2nccc(Nc3cccc4occc34)c2c1` have half-life greater than or equal to 5 min?
f

Quick check: does `Brc1ccc2nccc(Nc3cccc4ncsc34)c2c1` have half-life greater than or equal to 5 min?
t

Quick check: does `Brc1ccc2nccc(Nc3cccc4cnoc34)c2c1` have half-life greater than or equal to 5 min?
t

Quick check: does `Brc1ccc2nccc(Nc3cccc4c3CCO4)c2c1` have half-life greater than or equal to 5 min?
f

Quick check: does `Fc1c(F)c(F)c(Nc2ccnc3ccc(C(F)(F)F)cc23)c(F)c1F` have half-life greater than or equal to 5 min?
t

Quick check: does `Fc1ccc(Nc2ccnc3ccc(Br)cc23)c(F)c1` have half-life greater than or equal to 5 min?
f

Quick check: does `Brc1ccc2nccc(Nc3cccc4nonc34)c2c1` have half-life greater than or equal to 5 min?
f

Quick check: does `Brc1ccc2nccc(Nc3cccc4nc[nH]c34)c2c1` have half-life greater than or equal to 5 min?
t

###

experiment: mouse liver microsome metabolic stability; conditions: mouse, mouse liver microsomes, T1/2 (min), mouse liver microsomes with NADPH; mean average, n = 2
PROPERTY_NAME: log10 half-life (log10 of the value in min)
For clarity, the numbers are log10 values of half-life expressed in min.

// query log10 half-life value for entry Brc1ccc2nccc(Nc3cccc4sccc34)c2c1 [Compound 26]
0.61

// query log10 half-life value for entry O=c1[nH]c2cc(Nc3ccnc4ccc(Br)cc34)ccc2o1 [Compound 41]
1.44

// query log10 half-life value for entry Brc1ccc2nccc(Nc3cccc4scnc34)c2c1 [Compound 25]
0.41

// query log10 half-life value for entry Brc1ccc2nccc(Nc3cccc4c3OCO4)c2c1 [Compound 9]
0.95

// query log10 half-life value for entry Brc1ccc2nccc(Nc3cccc4ccoc34)c2c1 [Compound 20]
-0.05

// query log10 half-life value for entry Fc1ccc2c(c1Nc1ccnc3ccc(Br)cc13)OCO2 [Compound 14]
0.26

// query log10 half-life value for entry Cn1nnc2c(Nc3ccnc4ccc(Br)cc34)cccc21 [Compound 30]
-0.14

// query log10 half-life value for entry COc1cccc(Nc2ccnc3ccc(Br)cc23)c1OC [Compound 15]
0.00

// query log10 half-life value for entry Cn1ncc2c(Nc3ccnc4ccc(Br)cc34)cccc21 [Compound 31]
-0.10

// query log10 half-life value for entry O=c1[nH]c2ccc(Nc3ccnc4ccc(Br)cc34)cc2o1 [Compound 40]
1.75

// query log10 half-life value for entry Fc1cc2cn[nH]c2cc1Nc1ccnc2ccc(Br)cc12 [Compound 36]
1.17

// query log10 half-life value for entry COc1cc(Nc2ccnc3ccc(Br)cc23)cc(OC)c1OC [Compound 1]
0.76

###

biological target: GAK (Homo sapiens, UniProt O14976); assay: live cell NanoBRET target engagement assay; assay type: cell-based; conditions: nanoBRET; mean average, n = 2
Sequence (O14976 whole entry): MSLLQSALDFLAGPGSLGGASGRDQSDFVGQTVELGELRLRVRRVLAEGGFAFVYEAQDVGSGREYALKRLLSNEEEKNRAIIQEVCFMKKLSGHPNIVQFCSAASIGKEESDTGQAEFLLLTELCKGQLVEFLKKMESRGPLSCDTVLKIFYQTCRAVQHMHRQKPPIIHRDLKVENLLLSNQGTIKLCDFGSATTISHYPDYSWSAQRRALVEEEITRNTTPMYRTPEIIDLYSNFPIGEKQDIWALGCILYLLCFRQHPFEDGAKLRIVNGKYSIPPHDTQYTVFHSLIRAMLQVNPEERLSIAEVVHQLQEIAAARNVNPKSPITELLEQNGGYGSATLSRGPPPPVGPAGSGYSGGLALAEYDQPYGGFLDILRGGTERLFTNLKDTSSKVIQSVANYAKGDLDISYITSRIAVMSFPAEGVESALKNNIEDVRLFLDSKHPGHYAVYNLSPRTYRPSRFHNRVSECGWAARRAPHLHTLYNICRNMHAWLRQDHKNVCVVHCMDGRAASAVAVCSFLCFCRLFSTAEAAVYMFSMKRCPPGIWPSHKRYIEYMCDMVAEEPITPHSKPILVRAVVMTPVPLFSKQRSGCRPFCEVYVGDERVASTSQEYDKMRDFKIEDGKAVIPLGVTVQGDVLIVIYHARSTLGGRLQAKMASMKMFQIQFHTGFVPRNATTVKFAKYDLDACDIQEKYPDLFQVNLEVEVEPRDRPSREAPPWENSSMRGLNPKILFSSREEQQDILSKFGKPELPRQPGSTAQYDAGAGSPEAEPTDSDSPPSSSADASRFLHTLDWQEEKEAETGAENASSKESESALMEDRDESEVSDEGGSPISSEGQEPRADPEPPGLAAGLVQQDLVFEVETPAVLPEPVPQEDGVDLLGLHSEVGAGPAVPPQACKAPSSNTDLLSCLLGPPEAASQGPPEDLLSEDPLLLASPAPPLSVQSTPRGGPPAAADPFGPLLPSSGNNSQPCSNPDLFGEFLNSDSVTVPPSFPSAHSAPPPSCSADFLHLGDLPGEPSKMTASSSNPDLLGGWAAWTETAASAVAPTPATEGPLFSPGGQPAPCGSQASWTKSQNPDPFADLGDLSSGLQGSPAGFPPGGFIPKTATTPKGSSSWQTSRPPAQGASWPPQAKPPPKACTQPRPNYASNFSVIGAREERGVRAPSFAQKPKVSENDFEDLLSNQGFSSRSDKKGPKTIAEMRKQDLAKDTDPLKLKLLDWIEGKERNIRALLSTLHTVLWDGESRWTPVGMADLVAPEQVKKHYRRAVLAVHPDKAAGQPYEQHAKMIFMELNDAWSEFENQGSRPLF
Kindly state IC50 for each of the entries shown.
# output: bare number, implied unit nM

// query IC50 value for entry Fc1ccc(F)c(Nc2ccnc3ccc(Br)cc23)c1 [Compound 10]
870

// query IC50 value for entry Brc1ccc2nccc(Nc3cccc4nonc34)c2c1 [Compound 28]
2500

// query IC50 value for entry Brc1ccc2nccc(Nc3cccc4c3OCO4)c2c1 [Compound 9]
22

// query IC50 value for entry Brc1ccc2nccc(Nc3cccc4c3OCC4)c2c1 [Compound 18]
2500

// query IC50 value for entry Brc1ccc2nccc(Nc3cccc4cnoc34)c2c1 [Compound 21]
1400

// query IC50 value for entry Fc1ccc(Nc2ccnc3ccc(Br)cc23)c(F)c1 [Compound 11]
2700

// query IC50 value for entry Brc1ccc2nccc(Nc3ccc4cn[nH]c4c3)c2c1 [Compound 35]
1400

// query IC50 value for entry Brc1ccc2nccc(Nc3cccc4ncsc34)c2c1 [Compound 24]
220

###

test: Kinetic Solubility; type: physicochemical; settings: pH 7.4, aqueous buffer, kinetic from dmso stock; PBS pH7.4 (100 µM); read-out: Kinetic Solubility µg/mL
PROPERTY_NAME: solubility kinetic (µg/mL)
# output: bare number, implied unit µg/mL

// query solubility kinetic value for entry `Brc1ccc2nccc(Nc3cccc4oncc34)c2c1`
1.2

// query solubility kinetic value for entry `Brc1ccc2nccc(Nc3ccc4cn[nH]c4c3)c2c1`
4.2

// query solubility kinetic value for entry `Fc1ccc2c(c1Nc1ccnc3ccc(Br)cc13)OCO2`
3.2

// query solubility kinetic value for entry `COc1cc2nccc(Nc3cc(OC)c(OC)c(OC)c3)c2cc1OC`
47.6

###

Kindly state IC50 for each of the entries shown.
molecular target: GAK (Homo sapiens); assay: live cell NanoBRET target engagement assay; type: cell-based; settings: nanoBRET; mean average, n = 2

// query IC50 value for entry `Brc1ccc2nccc(Nc3cccc4c3CCO4)c2c1`
> 5 µM

// query IC50 value for entry `Cn1ncc2c(Nc3ccnc4ccc(Br)cc34)cccc21`
> 5 µM

// query IC50 value for entry `FC1(F)Oc2cccc(Nc3ccnc4ccc(Br)cc34)c2O1`
> 5 µM

// query IC50 value for entry `Cn1c(=O)[nH]c2cc(Nc3ccnc4ccc(Br)cc34)ccc21`
> 5 µM

// query IC50 value for entry `O=c1[nH]c2ccc(Nc3ccnc4ccc(Br)cc34)cc2o1`
> 5 µM

// query IC50 value for entry `Brc1ccc2nccc(Nc3ccc4[nH]ncc4c3)c2c1`
> 5 µM

###

pKi: −log10 of the molar value.
Recorded below: pKi, system AAK1 (Homo sapiens).

// query pKi value for entry `FC1(F)Oc2cccc(Nc3ccnc4ccc(Br)cc34)c2O1`
< 4.00

// query pKi value for entry `Fc1c(F)c(F)c(Nc2ccnc3ccc(C(F)(F)F)cc23)c(F)c1F`
< 4.00

// query pKi value for entry `Brc1ccc2nccc(Nc3cccc4c3CCO4)c2c1`
< 4.00
